target_or_system: mSTING (Mus musculus)
Sequence (Q3TBT3 1-378): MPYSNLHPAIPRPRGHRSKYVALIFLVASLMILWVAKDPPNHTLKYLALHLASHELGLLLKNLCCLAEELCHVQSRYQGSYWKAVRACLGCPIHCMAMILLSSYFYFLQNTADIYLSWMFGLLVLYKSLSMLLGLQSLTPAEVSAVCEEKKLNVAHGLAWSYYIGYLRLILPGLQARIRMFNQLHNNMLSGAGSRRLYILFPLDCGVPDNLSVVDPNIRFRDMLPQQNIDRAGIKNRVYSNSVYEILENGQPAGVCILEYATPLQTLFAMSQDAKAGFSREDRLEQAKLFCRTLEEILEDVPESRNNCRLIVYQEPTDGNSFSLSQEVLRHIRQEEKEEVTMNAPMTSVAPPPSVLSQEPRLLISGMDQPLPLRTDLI
method: THP1-Dual KI-mSTING reporter assay
Assay type: cell-based
Parameters: host or cells: THP1-Dual KI-mSTING (from THP1-Dual KO-STING)
experimental_conditions: THP1-Dual KI-mSTING cells, 24 hours; read-out: Reporter assay EC50 (nM) THP-1 mSTING
A collection of compounds and their measured EC50

# annotated cases, reported EC50 shown
>  <item_smiles>
CCc1nc(C)oc1C(=O)Nc1nc2cc(C(N)=O)cc(OCCCN3CC4(C3)CN(C(=O)CNC)CCO4)c2n1C/C=C/Cn1c(NC(=O)c2cc(C)nn2CC)nc2cc(C(N)=O)cc(OC)c21

>  <value_reported>
> 150 nM

$$$$
>  <item_smiles>
CCn1nc(C)cc1C(=O)Nc1nc2cc(C(N)=O)cc(OC)c2n1C/C=C/Cn1c(N2CCn3nc(C)cc3C2=O)nc2cc(C(N)=O)cc(OCCCN3CC4(CNCCO4)C3)c21

>  <value_reported>
> 150 nM

$$$$
>  <item_smiles>
CCn1nc(C)cc1C(=O)Nc1nc2cc(C(N)=O)cnc2n1CCCCn1c(NC(=O)c2cc(C)nn2CC)nc2cc(C(N)=O)cc(OCCCN3CCC(c4nnc5n4CCNC5)CC3)c21

>  <value_reported>
> 150 nM

$$$$
>  <item_smiles>
CCc1nc(C)oc1C(=O)Nc1nc2cc(C(N)=O)cc(OCCCN3CC4(C3)CN(C(=O)[C@H](N)CC(C)C)CCO4)c2n1C/C=C/Cn1c(NC(=O)c2cc(C)nn2CC)nc2cc(C(N)=O)cc(OC)c21

>  <value_reported>
≤ 50 nM

$$$$
>  <item_smiles>
CCn1nc(C)cc1C(=O)Nc1nc2cc(C(N)=O)cc(OC)c2n1C/C=C/Cn1c(NC(=O)c2cn(C)nc2C2CNC2)nc2cc(C(N)=O)cc(OCCCN3CC4(CCCCO4)C3)c21

>  <value_reported>
> 150 nM

$$$$
>  <item_smiles>
CCn1nc(C)cc1C(=O)Nc1nc2cc(C(N)=O)cc(OC)c2n1C/C=C/Cn1c(NC(=O)c2cc(C)nn2C)nc2cc(C(N)=O)cc(OCCCN3CC4(CNCCO4)C3)c21

>  <value_reported>
≤ 50 nM

$$$$
>  <item_smiles>
CCn1nc(C)cc1C(=O)Nc1nc2cc(C(N)=O)cnc2n1C/C=C/Cn1c(NC(=O)c2cc(C)nn2CC)nc2cc(C(N)=O)cc(OCCCN3CCC(c4nnc5n4CCNC5)CC3)c21

>  <value_reported>
> 150 nM

$$$$
>  <item_smiles>
CCc1nc(C)oc1C(=O)Nc1nc2cc(C(N)=O)cc3c2n1C/C=C/Cn1c(NC(=O)c2oc(C)nc2CC)nc2cc(C(N)=O)cc(c21)OCC1(CNC1)CO3

>  <value_reported>
≤ 50 nM

$$$$

Please find the next compound below.
Challenge: Give me measured EC50, please, for this compound: `CCn1nc(C)cc1C(=O)Nc1nc2cc(C(N)=O)cc(OC)c2n1C/C=C/Cn1c(NC(=O)c2cc(C)nn2CC)nc2cc(C(N)=O)cc(OCCCN3CC4(C3)CN(C(=O)CCCCCON)CCO4)c21`
Response given: ≤ 50 nM

====

target_or_system: hSTING-R232 (Homo sapiens, UniProt Q86WV6, H232R)
Construct: host or cells: THP1-Dual KI-hSTING-R232 (from THP1-Dual KO-STING)
Sequence (Q86WV6 whole entry H232R): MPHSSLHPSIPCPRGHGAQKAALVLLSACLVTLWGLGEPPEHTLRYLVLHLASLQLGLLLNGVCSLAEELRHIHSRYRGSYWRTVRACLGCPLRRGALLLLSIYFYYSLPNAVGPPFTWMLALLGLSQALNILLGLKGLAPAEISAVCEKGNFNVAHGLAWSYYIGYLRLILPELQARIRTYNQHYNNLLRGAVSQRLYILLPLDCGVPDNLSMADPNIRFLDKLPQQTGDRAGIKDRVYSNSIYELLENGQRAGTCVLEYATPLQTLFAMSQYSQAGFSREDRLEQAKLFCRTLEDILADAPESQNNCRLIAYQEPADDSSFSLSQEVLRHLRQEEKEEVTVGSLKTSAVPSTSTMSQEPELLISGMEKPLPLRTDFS
method: THP1-Dual KI-hSTING-R232 reporter assay (IRF pathway, secreted Lucia luciferase)
Assay type: cell-based
experimental_conditions: THP1-Dual KI-hSTING-R232 cells, 24 hours; read-out: Reporter assay EC50 (nM) THP-1-R232
A collection of molecules and their measured EC50

Answered cases to consult:
>  <item_smiles>
CCn1nc(C)cc1C(=O)Nc1nc2cc(C(N)=O)ccc2n1C/C=C/Cn1c(NC(=O)c2cc(C)nn2CC)nc2cc(C(N)=O)cc(OCCCN3CC4(CNCCO4)C3)c21

>  <EC50>
≤ 50 nM

$$$$
>  <item_smiles>
CCc1nc(C)oc1C(=O)Nc1nc2cc(C(N)=O)cc3c2n1C/C=C/Cn1c(NC(=O)c2oc(C)nc2CC)nc2cc(C(N)=O)cc(c21)OCC1(CNC1)CO3

>  <EC50>
≤ 50 nM

$$$$
>  <item_smiles>
CCn1nc(C)cc1C(=O)Nc1nc2cc(C(N)=O)ccc2n1C/C=C/Cn1c(NC(=O)c2cc(C)nn2CC)nc2cc(C(N)=O)cc(OCCCN3CC4(C3)CN(C(=O)CN)CCO4)c21

>  <EC50>
50 to 150 nM

$$$$
>  <item_smiles>
CCc1nc(C)oc1C(=O)Nc1nc2cc(C(N)=O)cc(OCCCN3CC4(C3)CN(C(=O)[C@@H](N)CC(C)C)CCO4)c2n1C/C=C/Cn1c(NC(=O)c2cc(C)nn2CC)nc2cc(C(N)=O)cc(OC)c21

>  <EC50>
≤ 50 nM

$$$$
>  <item_smiles>
CCn1nc(C)cc1C(=O)Nc1nc2cc(C(N)=O)cc(OC)c2n1C/C=C/Cn1c(NC(=O)c2oc(C)nc2C)nc2cc(C(N)=O)cc(OCCCN3CC4(CNCCO4)C3)c21

>  <EC50>
≤ 50 nM

$$$$
>  <item_smiles>
CCn1nc(C)cc1C(=O)Nc1nc2cc(C(N)=O)cnc2n1C/C=C/Cn1c(NC(=O)c2cc(C)nn2CC)nc2cc(C(N)=O)cc(OCCCN3CCC(c4nnc5n4CCNC5)CC3)c21

>  <EC50>
50 to 150 nM

$$$$
>  <item_smiles>
CCn1nc(C)cc1C(=O)Nc1nc2cc(C(N)=O)ccc2n1C/C=C/Cn1c(NC(=O)c2cc(C)nn2CC)nc2cc(C(N)=O)cc(OCCCN3CC4(C3)CN(C(=O)[C@H](CC(C)C)NC(=O)CCCCCO/N=C(\C)c3ccc(C[C@H](N)C(=O)O)cc3)CCO4)c21

>  <EC50>
50 to 150 nM

$$$$
>  <item_smiles>
CCn1nc(C)cc1C(=O)Nc1nc2cc(C(N)=O)cc(OC)c2n1C/C=C/Cn1c(NC(=O)c2ccnn2CC)nc2cc(C(N)=O)cc(OCCCN3CC4(CNCCO4)C3)c21

>  <EC50>
≤ 50 nM

$$$$

Now look at this one.
Challenge: // output EC50; input `CCn1nc(C)cc1C(=O)Nc1nc2cc(C(N)=O)cc(OC)c2n1C/C=C/Cn1c(NC(=O)c2cc(C)nn2CC)nc2cc(C(N)=O)cc(OCCCN3CCC(c4nnc5n4CCNC5)CC3)c21` ; system hSTING-R232 (Homo sapiens, UniProt Q86WV6, H232R)
Response given: 50 to 150 nM

====

Some molecules, each annotated with its measured EC50.
target_or_system: hSTING H232 (Homo sapiens, UniProt Q86WV6)
Sequence (Q86WV6 whole entry): as the sequence (Q86WV6 whole entry H232R) above, with R232H counted along it
method: THP1-Dual KI-hSTING-H232 reporter assay (IRF pathway, secreted Lucia luciferase)
Assay type: cell-based
Design: host or cells: THP1-Dual KI-hSTING-H232 (from THP1-Dual KO-STING)
experimental_conditions: THP1-Dual KI-hSTING-H232 cells, 24 hours; read-out: Reporter assay EC50 (nM) THP-1-H232

Field: example entries. Status: answers known.
>  <molecule>
CCn1nc(C)cc1C(=O)Nc1nc2cc(C(N)=O)cnc2n1CCCCn1c(NC(=O)c2cc(C)nn2CC)nc2cc(C(N)=O)cc(OCCCN3CCC(c4nnc5n4CCNC5)CC3)c21 [Compound 22]

>  <target_or_system>
hSTING H232 (Homo sapiens, UniProt Q86WV6)

>  <EC50>
> 150 nM

$$$$
>  <molecule>
COc1cc(C(N)=O)cc2nc(NC(=O)c3oc(C)nc3C)n(C/C=C/Cn3c(NC(=O)c4oc(C)nc4C)nc4cc(C(N)=O)cc(OCCCN5CCC(c6nnc7n6CCNC7)CC5)c43)c12 [Compound 43]

>  <target_or_system>
hSTING H232 (Homo sapiens, UniProt Q86WV6)

>  <EC50>
> 150 nM

$$$$
>  <molecule>
CCn1nc(C)cc1C(=O)Nc1nc2cc(C(N)=O)cc(OC)c2n1C/C=C/Cn1c(NC(=O)Cc2cc(C)n(C)n2)nc2cc(C(N)=O)cc(OCCCN3CC4(CNCCO4)C3)c21 [Compound 9]

>  <target_or_system>
hSTING H232 (Homo sapiens, UniProt Q86WV6)

>  <EC50>
> 150 nM

$$$$
>  <molecule>
CCc1nc(C)oc1C(=O)Nc1nc2cc(C(N)=O)cc(OCCCN3CC4(CNCCO4)C3)c2n1C/C=C/Cn1c(NC(=O)c2cc(C)nn2CC)nc2cc(C(N)=O)cc(OC)c21 [Compound 10]

>  <target_or_system>
hSTING H232 (Homo sapiens, UniProt Q86WV6)

>  <EC50>
≤ 50 nM

$$$$

Challenge: Supply EC50 value. Item: CCn1nc(C)cc1C(=O)Nc1nc2cc(C(N)=O)cc(OC)c2n1C/C=C/Cn1c(NC(=O)C23CCC(C)(CC2)CC3)nc2cc(C(N)=O)cc(OCCCN3CC4(CNCCO4)C3)c21 [Compound 12]
Response given: > 150 nM
